B1: glmS ribozyme (parent)
chain: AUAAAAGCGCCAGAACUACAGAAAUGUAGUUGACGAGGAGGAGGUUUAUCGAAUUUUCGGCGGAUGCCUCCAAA

variants of: B1; test: self-cleavage kobs at 40 uM GlcN6P; higher = faster cleavage; RNA array; conditions: with glucosamine-6-phosphate
Variants at the floor of the assay were thinned out.
Observable: self-cleavage kobs at 40 uM GlcN6P (s⁻¹)
A number alone suffices; assume s⁻¹.

- A42G A53C: 0.000286

Entry "A18C" ; self-cleavage kobs at 40 uM GlcN6P = 0.00108

Entry "C67A" ; self-cleavage kobs at 40 uM GlcN6P = 0.000434

Entry U47G C71U ; self-cleavage kobs at 40 uM GlcN6P = 0.000224

Entry U54A U56A ; self-cleavage kobs at 40 uM GlcN6P = 0.00022

Numbers sourced from the supplement of paper PMC7125110.
